Target: T1, alpha-synuclein plaque particles (Homo sapiens, UniProt P37840)
T1 construct: 140 amino acids polypeptide
Assay: Mass spectroscopy proteomics, semi-quantitative binding affinity of serum proteins (plaqueproteome, Table 2)
Conditions: higher number = stronger affinity
Quantity Name: Semi-quantitative analysis of proteins binding to different plaque particles: Synuclein
A bare number is all that is needed in reply.

Need Semi-quantitative analysis of proteins binding to different plaque particles: Synuclein, item Ig heavy chain V-I region HG3 (protein) QVQLVQSGAEVKKPGASVKVSCKASGYTFTSYYMHWVRQAPGQGLEWMGIINPSGGSTSYAQKFQGRVTMTRDTSTSTVYMELSSLRSEDTAVYYCAR
2

Can you share its Semi-quantitative analysis of proteins binding to different plaque particles: Synuclein? I mean this molecule: Ig lambda chain V-III region LOI (protein) VTSYVLTQPPSVSVAPGQTARITCGGNNIGSKSVHWYQQKPGQAPVLVVYDDSDRPSGIPERFSGSNSGNTATLTISRVEAGDEADYYCQVWDSSSDHPT
2
